# EC50 values compiled below
# target: TLR7 (Homo sapiens)
# Construct: Human peripheral blood mononuclear cells (PBMCs) consist of lymphocytes, monocytes and dendritic cells that express TLR7, TLR8 and TLR9; endogenous in cells
# Sequence (Q9NYK1 27-1049): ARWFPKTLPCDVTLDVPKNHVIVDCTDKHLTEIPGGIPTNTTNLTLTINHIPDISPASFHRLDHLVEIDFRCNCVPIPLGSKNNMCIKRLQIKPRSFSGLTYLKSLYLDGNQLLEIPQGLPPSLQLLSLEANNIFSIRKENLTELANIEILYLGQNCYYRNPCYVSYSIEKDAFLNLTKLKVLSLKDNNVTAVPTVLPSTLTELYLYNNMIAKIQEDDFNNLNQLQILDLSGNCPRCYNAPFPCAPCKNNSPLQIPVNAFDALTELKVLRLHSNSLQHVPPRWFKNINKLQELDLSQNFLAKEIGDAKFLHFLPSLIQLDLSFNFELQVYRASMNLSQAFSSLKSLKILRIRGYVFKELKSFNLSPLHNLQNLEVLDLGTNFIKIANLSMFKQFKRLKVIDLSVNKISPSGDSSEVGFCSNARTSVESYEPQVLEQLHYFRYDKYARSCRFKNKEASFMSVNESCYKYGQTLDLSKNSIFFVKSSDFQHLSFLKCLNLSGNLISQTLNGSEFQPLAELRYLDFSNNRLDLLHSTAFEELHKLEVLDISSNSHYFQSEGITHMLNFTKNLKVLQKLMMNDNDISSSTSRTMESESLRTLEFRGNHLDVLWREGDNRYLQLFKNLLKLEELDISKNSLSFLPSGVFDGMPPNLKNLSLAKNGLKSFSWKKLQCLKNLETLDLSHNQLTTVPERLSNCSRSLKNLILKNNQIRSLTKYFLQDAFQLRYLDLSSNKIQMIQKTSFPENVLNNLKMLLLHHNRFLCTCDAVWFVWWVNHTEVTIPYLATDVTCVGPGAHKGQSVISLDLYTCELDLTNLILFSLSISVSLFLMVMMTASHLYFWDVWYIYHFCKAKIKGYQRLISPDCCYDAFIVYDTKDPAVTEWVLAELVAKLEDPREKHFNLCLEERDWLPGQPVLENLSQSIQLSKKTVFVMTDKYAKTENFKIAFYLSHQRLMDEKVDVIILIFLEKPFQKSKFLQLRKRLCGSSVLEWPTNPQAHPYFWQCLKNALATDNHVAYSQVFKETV
# measurementNotes: TLR7 human PBMC cell-based assay (antagonist, GS-986 stimulated cytokine release)
# conditionDetails: human PBMCs; TLR7 agonist GS-986 400 nM, 6 hours; cytokines (IL-6 and IFNα) in supernatant; read-out: TLR-7 EC50
Respond numerically; units are nM and should not be typed.

Please review the following examples before continuing.
# molecule, EC50 (nM)
measured = [
    ("Cc1cc(-c2[nH]c3cc(C4CCC(N5CC6(COC6)C5)CC4)sc3c2C(C)C)cn2ncnc12 (stereo not shown)", 0.3),
    ("Cc1cc(-c2[nH]c3cc(C4CCN(C(=O)[C@H]5COCCN5)CC4)sc3c2C(C)C)cn2ncnc12", 0.3),
    ("Cc1cc(-c2[nH]c3cc(C(=O)N4CCCCC4CN(C)C)sc3c2C(C)C)cn2ncnc12 (stereo not shown)", 3.9),
]

Query: What measured EC50 goes with Cc1cc(-c2[nH]c3cc(C4CCC5(C4)CN(CC(N)=O)C5)sc3c2C(C)C)cn2ncnc12 (single isomer, unassigned) [Example 311] ?
Result: 0.57

Query: What measured EC50 goes with `Cc1cc(-c2[nH]c3cc(C(=O)N4CC[C@@H](CN)C4)sc3c2C(C)C)cn2ncnc12` ?
Result: 19

Query: What measured EC50 goes with `Cc1cc(-c2[nH]c3cc(C(=O)N4C[C@@H](C)NC[C@@H]4C)sc3c2C(C)C)cn2ncnc12` ?
Result: 1.3

Query: What measured EC50 goes with Cc1cc(-c2[nH]c3cc(C4CCN(C(=O)C5CN6CCC5CC6)CC4)sc3c2C(C)C)cn2ncnc12 (stereo not shown) ?
Result: 0.5

###

# target: TLR8 (Homo sapiens)
# Construct: Human peripheral blood mononuclear cells (PBMCs) consist of lymphocytes, monocytes and dendritic cells that express TLR7, TLR8 and TLR9; endogenous in cells
# Sequence (Q9NR97 27-1041): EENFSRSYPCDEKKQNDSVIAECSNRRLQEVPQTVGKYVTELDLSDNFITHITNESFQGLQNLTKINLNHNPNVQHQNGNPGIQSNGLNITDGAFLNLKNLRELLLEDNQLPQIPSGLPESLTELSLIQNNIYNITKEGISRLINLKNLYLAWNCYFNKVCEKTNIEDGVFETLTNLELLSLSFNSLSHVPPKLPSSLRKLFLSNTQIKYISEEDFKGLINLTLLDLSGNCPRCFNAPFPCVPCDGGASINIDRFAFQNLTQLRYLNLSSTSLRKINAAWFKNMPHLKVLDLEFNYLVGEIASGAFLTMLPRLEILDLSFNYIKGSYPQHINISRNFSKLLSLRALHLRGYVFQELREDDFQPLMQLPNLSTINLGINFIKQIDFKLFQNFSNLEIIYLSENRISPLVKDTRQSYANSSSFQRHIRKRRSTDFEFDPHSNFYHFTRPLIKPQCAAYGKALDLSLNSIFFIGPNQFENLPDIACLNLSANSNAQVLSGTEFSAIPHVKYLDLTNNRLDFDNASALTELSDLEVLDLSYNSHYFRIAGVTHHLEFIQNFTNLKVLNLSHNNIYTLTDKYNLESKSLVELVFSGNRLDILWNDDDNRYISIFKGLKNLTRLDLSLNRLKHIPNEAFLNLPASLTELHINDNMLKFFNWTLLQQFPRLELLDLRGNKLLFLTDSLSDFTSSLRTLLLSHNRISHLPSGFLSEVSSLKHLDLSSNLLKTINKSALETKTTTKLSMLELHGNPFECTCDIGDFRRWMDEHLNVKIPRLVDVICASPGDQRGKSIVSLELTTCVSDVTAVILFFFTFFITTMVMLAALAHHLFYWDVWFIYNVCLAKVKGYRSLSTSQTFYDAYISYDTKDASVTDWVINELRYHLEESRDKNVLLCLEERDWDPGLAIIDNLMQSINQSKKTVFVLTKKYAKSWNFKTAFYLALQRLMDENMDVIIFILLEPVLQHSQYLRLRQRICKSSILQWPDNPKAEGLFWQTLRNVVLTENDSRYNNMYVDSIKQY
# measurementNotes: TLR8 human PBMC cell-based assay (antagonist, Compound A stimulated cytokine release)
# conditionDetails: human PBMCs; TLR8 agonist Compound A 800 nM, 6 hours; cytokines (TNFa and IL 12p40) in supernatant; read-out: TLR-8 EC50
# EC50 values compiled below
Respond numerically; units are nM and should not be typed.

Please review the following examples before continuing.
# compound, unitDescriptor, EC50
records = [
    ("Cc1cc(-c2[nH]c3cc(C(=O)N4CCC[C@H]4CN)sc3c2C(C)C)cn2ncnc12 [Example 145]", "nM", 46.3),
    ("Cc1cc(-c2[nH]c3cc(C4CCC5(CC4)CN(C(=O)[C@H]4COCCN4)C5)sc3c2C(C)C)cn2ncnc12 [Example 284]", "nM", 14.2),
    ("Cc1cc(-c2[nH]c3cc(C4CCN(CC5(C)COC5)CC4)sc3c2C(C)C)cn2ncnc12 [Example 186]", "nM", 3.1),
]

Query: What measured EC50 goes with Cc1cc(-c2[nH]c3cc(C(=O)N4CCC5CC5(N)C4)sc3c2C(C)C)cc(C)n1 (stereo not shown) [Example 31] ?
Result: 68

Query: What measured EC50 goes with Cc1cc(-c2[nH]c3cc(C(=O)N4CCC[C@H]5NCCC[C@H]54)sc3c2C(C)C)cn2ncnc12 [Example 110] ?
Result: 0.8

Query: What measured EC50 goes with Cc1c(-c2[nH]c3cc(C(=O)N4CCNCC4)sc3c2C(C)C)cn2ncnc2c1C [Example 32] ?
Result: 1.2

Query: What measured EC50 goes with Cc1cc(-c2[nH]c3cc(C(=O)N(C)C4CCN(C(=O)CN(C)C)CC4)sc3c2C(C)C)cn2ncnc12 [Example 180] ?
Result: 11.5
